conditions: LC-MS determination in the acidic range, pH 2.7, 0.1% aqueous formic acid and acetonitrile
property.label: Log P [a]
// print number alone

Study these solved cases before continuing.
> print(dat)
                                   molecule  result
1  Cc1cc(C(F)(F)F)nn1CC(=O)N1CCC(c2nc(C3=NOC(COc4c(F)cccc4F)C3)cs2)CC1 (stereo not shown) [I-54]    3.34
2  COc1cccc(C=O)c1OCC1CC(c2csc(C3CCN(C(=O)Cn4nc(C(F)F)cc4C(F)F)CC3)n2)=NO1 (stereo not shown) [I-72]    3.02

// query Log P [a] value for entry Cc1ccc(C)c(CC(=O)N2CCC(c3nc(C4=NOC(COc5ccccc5)C4)cs3)CC2)c1 (stereo not shown) [I-29]
3.71

====

# Log P [a] values compiled below
details: LC-MS determination in the acidic range, pH 2.7, 0.1% aqueous formic acid and acetonitrile

Study these solved cases before continuing.
> print(dat)
                                   molecule  property.label    result
1  Cc1ccc(C)c(NC(=S)N2CCC(c3nc(C4=NOC(C(F)(F)c5c(F)cccc5F)C4)cs3)CC2)c1 (stereo not shown) [I-27]       Log P [a]  3.81^[a]
2  Cc1ccc(C)c(NC(=S)N2CCC(c3nc(C4=NOC(C(F)c5ccccc5)C4)cs3)CC2)c1 (stereo not shown) [I-39]       Log P [a]  3.61^[a]
3  Cc1ccc(Cl)cc1NC(=O)N1CCC(c2nc(C3=NOC(COc4c(F)cccc4F)C3)cs2)CC1 (stereo not shown) [I-50]       Log P [a]      3.66

Next up:
// query Log P [a] value for entry O=C(Cn1nc(C(F)F)cc1C(F)F)N1CCC(c2nc(C3=NOC(COc4c(Br)cccc4Br)C3)cs2)CC1 (stereo not shown) [I-36]
3.9

====

conditions: LC-MS determination in the acidic range, pH 2.7, 0.1% aqueous formic acid and acetonitrile
# Log P [a] values compiled below
// print number alone

Study these solved cases before continuing.
> print(dat)
                                   molecule  property.label  result
1  Cc1cc(C(F)(F)F)nn1CC(=O)N1CCC(c2nc(C3=NOC(COc4c(F)cccc4Cl)C3)cs2)CC1 (stereo not shown)       Log P [a]    3.54
2  O=C(Cn1nc(C(F)F)cc1C(F)F)N1CCC(c2nc(C3=NOC(COc4ccccc4C=NO)C3)cs2)CC1 (mixture of isomers)       Log P [a]    2.62
3  CN(CC1CC(c2csc(C3CCN(C(=O)Cn4nc(C(F)F)cc4C(F)F)CC3)n2)=NO1)c1ccccc1 (stereo not shown)       Log P [a]    3.47
4  O=C(Cn1nc(C(F)F)cc1C(F)F)N1CCC(c2nc(C3=NOC(CSc4c(Cl)cccc4Cl)C3)cs2)CC1 (stereo not shown)       Log P [a]    3.99

Next up:
// query Log P [a] value for entry FC(F)c1cc(C(F)F)n(CC(=S)N2CCC(c3nc(C4=NOC(COc5ccccc5)C4)cs3)CC2)n1 (stereo not shown)
3.73

====

details: LC-MS determination in the acidic range, pH 2.7, 0.1% aqueous formic acid and acetonitrile
Is Log P [a] at least 4? Then 1. If not, 0.

Study these solved cases before continuing.
> print(dat)
                                   compound  answer.label
1  CC(C)(c1c(F)cccc1Cl)C1CC(c2csc(C3CCN(C(=O)Cn4nc(C(F)F)cc4C(F)F)CC3)n2)=NO1 (stereo not shown) [I-69]             1
2  O=C(Cn1nc(C(F)F)cc1C(F)F)N1CCC(c2nc(C3=NOC(C(O)(c4ccccc4)C(F)(F)F)C3)cs2)CC1 (stereo not shown) [I-49]             0
3  O=C(Cn1nc(C(F)F)cc1C(F)F)N1CCC(c2nc(-c3cc(COc4ccccc4)on3)cs2)CC1 [I-44]             0

Quick check, Log P [a] >= 4? O=C(Cn1nc(C(F)F)cc1C(F)F)N1CCC(c2nc(C3=NOC(CSc4ccccc4Br)C3)cs2)CC1 (stereo not shown) [I-63]
0
